- experimentNotes: reversal of MRP1-mediated doxorubicin resistance, pilot screen, H69AR cells, doxorubicin co-treatment (AID 601)
- appliedConditions: H69AR cells, CellTiter-Glo, 72 h; compound alone cytotoxicity; at 10 µM
viability by entry:
quantityKind: viability (%)

1. Cc1ccccc1NC(=O)C1CCC(C)(C(=O)O)C1(C)C (stereo not given) | 99.8
2. CC(=O)Nc1ccc(S(=O)(=O)N2CCN(Cc3ccncc3)CC2)cc1 | 109
3. CCCOc1ccccc1C1CC(=O)Nc2cc3c(cc21)OCCO3 (stereo not given) | 34.3
4. CN(C)c1nc(N(C)C)nc(N(C)C)n1 | 96.8
5. O=C(O)c1ccc(C2SCC(=O)N2Cc2ccccc2)cc1 (stereo not given) | 96.9
6. C=CCn1cnc2c(c1=O)c1nc3ccccc3nc1n2-c1ccc(C)cc1 | 86.9
7. CC(=O)Nc1cc(NC(C)=O)cc(C(=O)OCC(=O)N2CC(C)OC(C)C2)c1 (stereo not given) | 102
8. C#CC1(O)CC(C)N(C)C(C)C1 (stereo not given) | 91.9
9. CCCn1nc(NC(=O)c2cccs2)c2cc3cc(OC)ccc3nc21 | 63.1
10. O=C(Nc1ccc2oc(=O)ccc2c1)c1cccnc1 | 98.9
11. O=c1oc2ccccc2c(N2CCCCC2)c1CN1CCCCC1 | 82.5
12. COCCN1CN(S(=O)(=O)c2ccccc2)c2nc3ccccc3nc21 | 98
13. CCOC(=O)n1c(SCC(=O)N(CC)CC)nc2ccccc21 | 101
14. O=C(Sc1nnnn1C1CCCCC1)c1cccs1 | 98.7
15. O=C(Cc1ccc(Br)cc1)N1CCCCCC1 | 97.9
16. O=C(c1ccc2c(c1)OCO2)N1CCNc2ccccc2C1 | 99.6
17. O=C(Nc1ccc(F)cc1)NC1CCN(Cc2nnnn2Cc2ccco2)CC1 | 88.2
18. N#CC1=C(SCc2ccccc2)NC(=O)C(C#N)C12CCCC2 (stereo not given) | 83.1
19. C=CCc1ccccc1OCC(O)CNC(C)C (stereo not given) | 91.3
20. CN(C)c1ccc(C(=O)OCC(=O)NC2CCCCC2)cc1 | 91.5
21. CCOC(=O)Cc1csc(NC(=O)CSc2nnc(C3CC3)n2C)n1 | 97.9
22. COc1cc(NC2c3ccccc3C(=O)N2c2ccc(C)cn2)cc(OC)c1OC (stereo not given) | 88.7
23. O=[n+]1cc(-c2ccc(F)cc2)n([O-])c2c1CCC2 | 90.7
24. Cc1cc(Cn2ccnc2)c(C)cc1Cn1ccnc1 | 101
25. CCSc1nnc(NC(=O)c2ccccn2)s1 | 20.8
